Tested on: vancomycin-resistant enterococci
procedure-text: broth micro-dilution, mean geometric MIC
Format: cell-based, Enterococcus faecium and Enterococcus faecalis
condition-details: enterococci, 24-hour incubation
Quick reference for mean geometric MIC, Vancomycin Resistant Strains among some compounds
recorded-metric: mean geometric MIC, Vancomycin Resistant Strains (µg/mL)

# compound, assay-target, unit-tag, quantitative-result
measured = [
    ("CNC(CC(C)C)C(=O)NC1C(=O)NC(CC(N)=O)C(=O)NC2C(=O)NC3C(=O)NC(C(=O)NC(C(=O)O)c4cc(O)cc(O)c4-c4cc3ccc4O)C(OC3CC(C)(N)C(O)C(C)O3)c3ccc(c(Cl)c3)Oc3cc2cc(c3OC2OC(CO)C(O)C(O)C2OC2CC(C)(NCc3ccc(Oc4ccc(OC)cc4)cc3)C(O)C(C)O2)Oc2ccc(cc2Cl)C1O (stereo not drawn) [Compound 98]", "vancomycin-resistant enterococci", "µg/mL", 2.4),
    ("CNC(CC(C)C)C(=O)NC1C(=O)NC(CC(N)=O)C(=O)NC2C(=O)NC3C(=O)NC(C(=O)NC(C(=O)O)c4cc(O)cc(O)c4-c4cc3ccc4O)C(OC3CC(C)(N)C(O)C(C)O3)c3ccc(c(Cl)c3)Oc3cc2cc(c3OC2OC(CO)C(O)C(O)C2OC2CC(C)(NCc3ccccc3O)C(O)C(C)O2)Oc2ccc(cc2Cl)C1O (stereo not drawn) [Compound 169]", "vancomycin-resistant enterococci", "µg/mL", 19),
    ("CNC(CC(C)C)C(=O)NC1C(=O)NC(CC(N)=O)C(=O)NC2C(=O)NC3C(=O)NC(C(=O)NC(C(=O)O)c4cc(O)cc(O)c4-c4cc3ccc4O)C(O)c3ccc(c(Cl)c3)Oc3cc2cc(c3OC2OC(CO)C(O)C(O)C2OC2CC(C)(NCc3ccc(-c4ccccc4)cc3)C(O)C(C)O2)Oc2ccc(cc2Cl)C1O (stereo not drawn) [Compound 181]", "vancomycin-resistant enterococci", "µg/mL", 8.0),
]

---

Tested on: vancomycin-susceptible enterococci
procedure-text: broth micro-dilution, mean geometric MIC
Type: cell-based, Enterococcus faecium and Enterococcus faecalis
condition-details: enterococci, 24-hour incubation
recorded-metric: mean geometric MIC, Vancomycin Sensitive Strains (µg/mL)

# compound, assay-target, quantitative-result
rows = [
    ("CNC(CC(C)C)C(=O)NC1C(=O)NC(CC(N)=O)C(=O)NC2C(=O)NC3C(=O)NC(C(=O)NC(C(=O)O)c4cc(O)cc(O)c4-c4cc3ccc4O)C(O)c3ccc(c(Cl)c3)Oc3cc2cc(c3OC2OC(CO)C(O)C(O)C2OC2CC(C)(NCc3ccc(-c4ccccc4)cc3)C(O)C(C)O2)Oc2ccc(cc2Cl)C1O (centres unmarked)", "vancomycin-susceptible enterococci", 0.060),
    ("CNC(CC(C)C)C(=O)NC1C(=O)NC(CC(N)=O)C(=O)NC2C(=O)NC3C(=O)NC(C(=O)NC(C(=O)O)c4cc(O)cc(O)c4-c4cc3ccc4O)C(OC3CC(C)(N)C(O)C(C)O3)c3ccc(c(Cl)c3)Oc3cc2cc(c3OC2OC(CO)C(O)C(O)C2OC2CC(C)(NCc3ccc(-c4ccc(OC)cc4)s3)C(O)C(C)O2)Oc2ccc(cc2Cl)C1O (centres unmarked)", "vancomycin-susceptible enterococci", 0.57),
]

---

Test system: Staphylococcus aureus SA1199B
Type: cell-based

# molecule, censor-symbol, MIC, µg/mL
measured = [
    ("CNC(CC(C)C)C(=O)NC1C(=O)NC(CC(N)=O)C(=O)NC2C(=O)NC3C(=O)NC(C(=O)NC(C(=O)O)c4cc(O)cc(O)c4-c4cc3ccc4O)C(OC3CC(C)(N)C(O)C(C)O3)c3ccc(c(Cl)c3)Oc3cc2cc(c3OC2OC(CO)C(O)C(O)C2OC2CC(C)(NCc3c4ccccc4c(Cl)c4ccccc34)C(O)C(C)O2)Oc2ccc(cc2Cl)C1O (stereo not drawn)", "=", 2),
    ("CNC(CC(C)C)C(=O)NC1C(=O)NC(CC(N)=O)C(=O)NC2C(=O)NC3C(=O)NC(C(=O)NC(C(=O)O)c4cc(O)cc(O)c4-c4cc3ccc4O)C(O)c3ccc(c(Cl)c3)Oc3cc2cc(c3OC2OC(CO)C(O)C(O)C2OC2CC(C)(NCc3ccc(-c4ccccc4)cc3)C(O)C(C)O2)Oc2ccc(cc2Cl)C1O (stereo not drawn)", "≤", 0.06),
    ("CNC(CC(C)C)C(=O)NC1C(=O)NC(CC(N)=O)C(=O)NC2C(=O)NC3C(=O)NC(C(=O)NC(C(=O)O)c4cc(O)cc(O)c4-c4cc3ccc4O)C(OC3CC(C)(N)C(O)C(C)O3)c3ccc(c(Cl)c3)Oc3cc2cc(c3OC2OC(CO)C(O)C(O)C2OC2CC(C)(NCc3c4ccccc4c(C)c4ccccc34)C(O)C(C)O2)Oc2ccc(cc2Cl)C1O (stereo not drawn)", "=", 1),
]

---

System: vancomycin-susceptible enterococci
procedure-text: broth micro-dilution, mean geometric MIC
Format: cell-based, Enterococcus faecium and Enterococcus faecalis
condition-details: enterococci, 24-hour incubation
recorded-metric: mean geometric MIC, Vancomycin Sensitive Strains

# compound, result
rows = [
    ("CNC(CC(C)C)C(=O)NC1C(=O)NC(CC(N)=O)C(=O)NC2C(=O)NC3C(=O)NC(C(=O)NC(C(=O)O)c4cc(O)cc(O)c4-c4cc3ccc4O)C(OC3CC(C)(N)C(O)C(C)O3)c3ccc(c(Cl)c3)Oc3cc2cc(c3OC2OC(CO)C(O)C(O)C2OC2CC(C)(NCc3ccc(OC(F)(F)F)cc3)C(O)C(C)O2)Oc2ccc(cc2Cl)C1O (stereo not drawn)", "0.14 µg/mL"),
    ("CN[C@H](CC(C)C)C(=O)N[C@H]1C(=O)N[C@@H](CC(N)=O)C(=O)N[C@H]2C(=O)N[C@H]3C(=O)N[C@H](C(=O)N[C@H](C(=O)O)c4cc(O)cc(O)c4-c4cc3ccc4O)[C@H](O[C@H]3C[C@](C)(N)[C@@H](O)[C@H](C)O3)c3ccc(c(Cl)c3)Oc3cc2cc(c3O[C@@H]2O[C@H](CO)[C@@H](O)[C@H](O)[C@H]2O[C@H]2C[C@](C)(NCc3ccc(-c4cccc(F)c4)cc3)[C@@H](O)[C@H](C)O2)Oc2ccc(cc2Cl)[C@H]1O", "0.082 µg/mL"),
    ("CNC(CC(C)C)C(=O)NC1C(=O)NC(CC(N)=O)C(=O)NC2C(=O)NC3C(=O)NC(C(=O)NC(C(=O)O)c4cc(O)cc(O)c4-c4cc3ccc4O)C(OC3CC(C)(N)C(O)C(C)O3)c3ccc(c(Cl)c3)Oc3cc2cc(c3OC2OC(CO)C(O)C(O)C2OC2CC(C)(NCc3ccc(-c4ccccc4)s3)C(O)C(C)O2)Oc2ccc(cc2Cl)C1O (stereo not drawn)", "0.16 µg/mL"),
]

---

System: vancomycin-resistant enterococci
procedure-text: broth micro-dilution, mean geometric MIC
Format: cell-based, Enterococcus faecium and Enterococcus faecalis
condition-details: enterococci, 24-hour incubation
recorded-metric: mean geometric MIC, Vancomycin Resistant Strains

# compound, assay-target, result
data = [
    ("CNC(CC(C)C)C(=O)NC1C(=O)NC(CC(N)=O)C(=O)NC2C(=O)NC3C(=O)NC(C(=O)NC(C(=O)O)c4cc(O)cc(O)c4-c4cc3ccc4O)C(OC3CC(C)(N)C(O)C(C)O3)c3ccc(c(Cl)c3)Oc3cc2cc(c3OC2OC(CO)C(O)C(O)C2OC2CC(C)(NCc3ccc(N(C)c4ccccc4)cc3)C(O)C(C)O2)Oc2ccc(cc2Cl)C1O (stereo not drawn)", "vancomycin-resistant enterococci", "2.8 µg/mL"),
    ("CC(C)CC(C(=O)NC1C(=O)NC(CC(N)=O)C(=O)NC2C(=O)NC3C(=O)NC(C(=O)NC(C(=O)O)c4cc(O)cc(O)c4-c4cc3ccc4O)C(OC3CC(C)(N)C(O)C(C)O3)c3ccc(c(Cl)c3)Oc3cc2cc(c3OC2OC(CO)C(O)C(O)C2OC2CC(C)(NCC3CC=CCC3)C(O)C(C)O2)Oc2ccc(cc2Cl)C1O)N(C)CC1CC=CCC1 (stereo not drawn)", "vancomycin-resistant enterococci", "45 µg/mL"),
    ("CNC(CC(C)C)C(=O)NC1C(=O)NC(CC(N)=O)C(=O)NC2C(=O)NC3C(=O)NC(C(=O)NC(C(=O)O)c4cc(O)cc(O)c4-c4cc3ccc4O)C(OC3CC(C)(N)C(O)C(C)O3)c3ccc(c(Cl)c3)Oc3cc2cc(c3OC2OC(CO)C(O)C(O)C2OC2CC(C)(NCc3ccc(-c4ccc(C)c(C)c4)cc3)C(O)C(C)O2)Oc2ccc(cc2Cl)C1O (stereo not drawn)", "vancomycin-resistant enterococci", "0.71 µg/mL"),
    ("CNC(CC(C)C)C(=O)NC1C(=O)NC(CC(N)=O)C(=O)NC2C(=O)NC3C(=O)NC(C(=O)NC(C(=O)O)c4cc(O)cc(O)c4-c4cc3ccc4O)C(OC3CC(C)(N)C(O)C(C)O3)c3ccc(c(Cl)c3)Oc3cc2cc(c3OC2OC(CO)C(O)C(O)C2OC2CC(C)(NCc3ccc(-c4ccc(O)cc4)cc3)C(O)C(C)O2)Oc2ccc(cc2Cl)C1O (stereo not drawn)", "vancomycin-resistant enterococci", "4.8 µg/mL"),
    ("CNC(CC(C)C)C(=O)NC1C(=O)NC(CC(N)=O)C(=O)NC2C(=O)NC3C(=O)NC(C(=O)NC(C(=O)O)c4cc(O)cc(O)c4-c4cc3ccc4O)C(OC3CC(C)(N)C(O)C(C)O3)c3ccc(c(Cl)c3)Oc3cc2cc(c3OC2OC(CO)C(O)C(O)C2OC2CC(C)(NCc3ccc(Oc4ccc([N+](=O)[O-])cc4)cc3)C(O)C(C)O2)Oc2ccc(cc2Cl)C1O (stereo not drawn)", "vancomycin-resistant enterococci", "0.35 µg/mL"),
    ("CNC(CC(C)C)C(=O)NC1C(=O)NC(CC(N)=O)C(=O)NC2C(=O)NC3C(=O)NC(C(=O)NC(C(=O)O)c4cc(O)cc(O)c4-c4cc3ccc4O)C(OC3CC(C)(N)C(O)C(C)O3)c3ccc(c(Cl)c3)Oc3cc2cc(c3OC2OC(CO)C(O)C(O)C2OC2CC(C)(NCc3ccc(OS(C)(=O)=O)cc3)C(O)C(C)O2)Oc2ccc(cc2Cl)C1O (stereo not drawn)", "vancomycin-resistant enterococci", "45 µg/mL"),
]
